# System under test: SOS1 and KRAS G12D (protein-protein interaction) (Homo sapiens)
# Assay text: KRAS::SOS1 AlphaScreen binding assay
# Protocol conditions: read-out: IC50 (SOS1)
Recorded endpoint: pIC50
Hey, just a heads up that pIC50 is the negative log base 10 of the concentration in molar.

Entry Cc1nc(N[C@H](C)c2cc(N)cc(C(F)(F)F)c2)c2cc(C3CCS(=O)(=O)CC3)c(F)cc2n1 — recorded pIC50 = 8.40

Entry Cc1nc(N[C@H](C)c2cccc(C(F)(F)F)c2)c2cc(C3=CCC(C(=O)N(C)C)CC3)ccc2n1 (stereo partly shown) — recorded pIC50 = 7.72

Entry COCCN1CCN(C(=O)[C@H]2CC[C@H](c3cc4c(N[C@H](C)c5cc(N)cc(C(F)(F)F)c5F)nc(C)nc4cc3OC)CC2)CC1 — recorded pIC50 = 8.70

Entry COCC(=O)N1CCC(c2ccc3nc(C)nc(N[C@H](C)c4cc(N)cc(C(F)(F)F)c4)c3c2)CC1 — recorded pIC50 = 8.70

Entry COc1cc2nc(C)nc(N[C@H](C)c3cccc(C(F)(F)F)c3)c2cc1-c1ccc(C(=O)N2CCOCC2)cc1 — recorded pIC50 = 7.43

Entry COCCN(C)C(=O)[C@H]1CC[C@@H](c2ccc3nc(C)nc(N[C@H](C)c4cc(N)cc(C(F)(F)F)c4)c3c2)CC1 — recorded pIC50 = 8.05

Entry COc1cc2nc(C)nc(N[C@H](C)c3cc(N)cc(C(F)(F)F)c3)c2cc1[C@H]1CC[C@@H](C(=O)N2CCN(C)CC2)CC1 — recorded pIC50 = 7.66

Entry COc1cc2nc(C)nc(N[C@H](C)c3cccc(C(F)(F)F)c3)c2cc1-c1ccc(C(=O)N(C)CCO)cc1 — recorded pIC50 = 7.40

Entry Cc1nc(N[C@H](C)c2cc(N)cc(C(F)(F)F)c2)c2cc([C@H]3CC[C@H](C(=O)N(C)C[C@H](C)O)CC3)ccc2n1 — recorded pIC50 = 8.70

Entry Cc1nc(N[C@H](C)c2cccc(C(F)(F)F)c2)c2cc([C@H]3CC[C@@H](C(=O)N(C)C4COC4)CC3)ccc2n1 — recorded pIC50 = 7.42
